target: UniProt:Q9Y2T6; assay: GPR55 antagonists blocking LPI-driven arrestin recruitment, primary screen, imaging, U2OS, beta-arrestin-GFP, LPI agonist (AID 2013); assay type: functional;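 note: antagonist potency measured as reduced agonist-driven arrestin aggregation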
Sequence (Q9Y2T6 whole entry): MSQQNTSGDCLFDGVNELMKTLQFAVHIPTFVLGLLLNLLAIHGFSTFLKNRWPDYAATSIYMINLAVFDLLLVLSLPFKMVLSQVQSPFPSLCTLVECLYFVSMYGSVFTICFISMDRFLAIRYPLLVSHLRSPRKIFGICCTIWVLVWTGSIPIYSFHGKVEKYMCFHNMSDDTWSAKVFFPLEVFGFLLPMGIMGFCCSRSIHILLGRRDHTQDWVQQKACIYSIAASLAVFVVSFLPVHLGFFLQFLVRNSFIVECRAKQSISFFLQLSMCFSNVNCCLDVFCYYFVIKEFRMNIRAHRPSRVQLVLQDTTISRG
Counter-ions that a name gives are not always drawn. The source made the active and inactive calls. The rule behind the calls is not given here.
Assignment: determine reported IC50 for the given compounds.

// each listed compound needs a value for IC50
1. c1ccc(Cc2nnc(-c3ccccc3)o2)cc1
2. O=C1N=C(N2CCOCC2)S/C1=C/c1ccc(-c2ccc(F)cc2)o1

1. 3300 nM (active)
2. 2930 nM (active)

Parameter requested: IC50. Apply to each item below.
1. C1CCC(C(CC2CCCCN2)C2CCCCC2)CC1 (stereo not given) [PERHEXILINE MALEATE]
2. COc1ccc(Cl)cc1C(=O)NC(=S)Nc1ccccc1N1CCOCC1

["3190 nM (active)", "825 nM (active)"]

Look up IC50 with UniProt:Q9Y2T6 for this compound: "CC(C)c1ccc(NC(=S)NN(c2ccccc2)c2ccccc2)cc1"
793 nM (active)
